- assayedSystem: T1, extracellular domain of human BCMA (human, UniProt Q02223 1-54)
- T1 construct: amine-linked to Octet AR2G tips; also called hsBCMA; BCMA (human)
- T1 sequence: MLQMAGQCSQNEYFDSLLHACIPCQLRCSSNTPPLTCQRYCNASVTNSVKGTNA
- assayComment: Octet BLI; Fab 200 nM
pKd: −log10 of the molar value.
Assign true (1) whenever pKd does not fall below 8; assign false (0) whenever it does.

1. AB200-(2Vk35)_R2-VH-v6 (Fab, V domains shown, also called AB200_VH2-06_VK2-35) VH: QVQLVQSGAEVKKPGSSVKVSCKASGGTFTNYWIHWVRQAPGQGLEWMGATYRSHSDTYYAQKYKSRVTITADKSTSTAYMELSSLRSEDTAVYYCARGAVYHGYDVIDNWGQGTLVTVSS VL: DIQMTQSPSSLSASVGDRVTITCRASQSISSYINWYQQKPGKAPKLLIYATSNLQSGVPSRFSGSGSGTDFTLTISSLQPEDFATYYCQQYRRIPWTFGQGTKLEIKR; true (1)
2. AB200-(2Vk35)_R2-VH-v15 (Fab, V domains shown) VH: QVQLVQSGAEVKKPGSSVKVSCKASGGSFSNYWIHWVRQAPGQGLEWMGATYRSQSTTYYNQKFKSRVTITADKSTSTAYMELSSLRSEDTAVYYCARGAIFHGYDVIDNWGQGTLVTVSS VL: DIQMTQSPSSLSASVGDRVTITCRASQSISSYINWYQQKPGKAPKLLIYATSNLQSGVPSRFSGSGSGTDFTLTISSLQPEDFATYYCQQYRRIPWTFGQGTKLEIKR; false (0)
3. AB200-(2Vk35)_R2-VH-v63 (Fab, V domains shown) VH: QVQLVQSGAEVKKPGSSVKVSCKASGGTFSNYWIHWVRQAPGQGLEWMGATYRIHSTTNYNQKFKSRVTITADESTSTAYMELSSLRSEDTAVYYCARGAVYHGYDVIDNWGQGTLVTVSS VL: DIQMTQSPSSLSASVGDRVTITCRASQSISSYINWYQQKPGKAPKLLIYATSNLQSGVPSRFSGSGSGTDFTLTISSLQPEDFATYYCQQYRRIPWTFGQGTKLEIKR; false (0)
4. AB200-(2Vk35)_R2-VH-v32 (Fab, V domains shown) VH: QVQLVQSGAEVKKPGSSVKVSCKASGGTFSNYWIHWVRQAPGQGLEWMGATYRSHSDTNYNQKYKSRVTITADKSTSTAYMELSSLRSEDTAVYYCARGAIFHGYDVIDNWGQGTLVTVSS VL: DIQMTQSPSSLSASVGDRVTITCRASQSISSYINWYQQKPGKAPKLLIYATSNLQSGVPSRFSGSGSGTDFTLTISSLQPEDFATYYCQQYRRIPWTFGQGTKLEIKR; false (0)
5. AB200-(2Vk35)_R2-VH-v9 (Fab, V domains shown) VH: QVQLVQSGAEVKKPGSSVKVSCKASGGTYSNYWIHWVRQAPGQGLEWMGATYRSQSDTNYNQKFKSRVTITADKSTSTAYMELSSLRSEDTAVYYCARGAIYHGFDVIDNWGQGTLVTVSS VL: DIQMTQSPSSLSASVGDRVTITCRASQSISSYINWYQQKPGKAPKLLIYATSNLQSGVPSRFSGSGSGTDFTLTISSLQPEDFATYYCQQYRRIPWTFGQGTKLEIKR; false (0)
